The measurements presented in this section are drawn from paper PMC10450164.

target: TFAP2A G262E (Homo sapiens, UniProt P05549 203-420, G262E); test: ITC
Sequence (P05549 203-420 G262E): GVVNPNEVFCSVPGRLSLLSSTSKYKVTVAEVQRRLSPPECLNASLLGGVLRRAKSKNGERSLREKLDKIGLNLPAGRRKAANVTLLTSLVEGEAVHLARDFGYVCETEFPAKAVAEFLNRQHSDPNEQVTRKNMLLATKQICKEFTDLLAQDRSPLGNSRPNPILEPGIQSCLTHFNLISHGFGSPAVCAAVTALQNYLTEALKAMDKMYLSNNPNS
pKd: −log10 of the molar value.
resultType: pKd

CGA (GCC(N3)GGC) (dsDNA) DNA 1: GTGCCCGAGGCAG DNA 2: CTGCCTCGGGCAC ... 6.89
